Experiment: in vivo
Conditions: Wistar, rat, po, 23.7 mg/kg
Description: Elimination half life in Wistar rat at 23.7 mg/kg, po
Recorded Endpoint: half-life (h)
Express the result in h but write the number alone.

Exam item: // query half-life value for entry C[C@H]1Cc2c([nH]c3cc(Cl)c(F)cc23)[C@@]2(N1)C(=O)Nc1ccc(Cl)cc12
Marked response: 27.7

---

Target: Delta-type opioid receptor (Homo sapiens)
Sequence (P41143 whole entry): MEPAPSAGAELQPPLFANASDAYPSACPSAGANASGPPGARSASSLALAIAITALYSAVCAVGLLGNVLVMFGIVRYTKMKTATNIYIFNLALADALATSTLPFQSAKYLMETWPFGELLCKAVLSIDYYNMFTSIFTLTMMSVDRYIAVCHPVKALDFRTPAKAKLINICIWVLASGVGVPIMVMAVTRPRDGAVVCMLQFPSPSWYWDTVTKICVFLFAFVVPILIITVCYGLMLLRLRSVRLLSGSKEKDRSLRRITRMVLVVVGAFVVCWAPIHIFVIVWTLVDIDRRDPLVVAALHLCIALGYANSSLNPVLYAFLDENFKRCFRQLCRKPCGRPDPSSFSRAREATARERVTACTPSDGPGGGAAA
Experiment: Binding affinity to human recombinant opiate delta receptor
Recorded Endpoint: IC50

Exam item: // query IC50 value for entry C[C@H]1Cc2c([nH]c3cc(Cl)c(F)cc23)[C@@]2(N1)C(=O)Nc1ccc(Cl)cc12
Marked response: > 10 µM

---

Molecular target: Histamine H2 receptor (Homo sapiens, UniProt P25021)
Sequence (P25021 whole entry): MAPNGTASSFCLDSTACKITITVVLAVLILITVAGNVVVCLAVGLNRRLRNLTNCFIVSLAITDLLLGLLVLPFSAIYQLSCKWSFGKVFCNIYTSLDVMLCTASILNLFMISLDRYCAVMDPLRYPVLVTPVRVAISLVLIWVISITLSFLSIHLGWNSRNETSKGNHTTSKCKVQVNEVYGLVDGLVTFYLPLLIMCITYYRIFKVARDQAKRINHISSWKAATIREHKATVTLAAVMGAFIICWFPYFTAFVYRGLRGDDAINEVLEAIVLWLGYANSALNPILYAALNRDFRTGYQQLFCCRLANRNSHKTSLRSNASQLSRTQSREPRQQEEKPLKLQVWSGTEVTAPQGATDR
Assay: Binding affinity to human recombinant histamine H2 receptor
pIC50: −log10 of the molar value.
Recorded Endpoint: pIC50

Exam item: // query pIC50 value for entry C[C@H]1Cc2c([nH]c3cc(Cl)c(F)cc23)[C@@]2(N1)C(=O)Nc1ccc(Cl)cc12
Marked response: < 5.00

---

Assay: Intrinsic clearance in monkey liver microsome
Format: ADME, Macaca mulatta
Settings: rhesus monkey, liver microsomes
Recorded Endpoint: CLint scaled (mL/min/kg)
Express the result in mL/min/kg but write the number alone.

Exam item: // query CLint scaled value for entry C[C@H]1Cc2c([nH]c3cc(Cl)c(F)cc23)[C@@]2(N1)C(=O)Nc1ccc(Cl)cc12
Marked response: 6.05

---

Biological target: D(1A) dopamine receptor (Homo sapiens)
Sequence (P21728 whole entry): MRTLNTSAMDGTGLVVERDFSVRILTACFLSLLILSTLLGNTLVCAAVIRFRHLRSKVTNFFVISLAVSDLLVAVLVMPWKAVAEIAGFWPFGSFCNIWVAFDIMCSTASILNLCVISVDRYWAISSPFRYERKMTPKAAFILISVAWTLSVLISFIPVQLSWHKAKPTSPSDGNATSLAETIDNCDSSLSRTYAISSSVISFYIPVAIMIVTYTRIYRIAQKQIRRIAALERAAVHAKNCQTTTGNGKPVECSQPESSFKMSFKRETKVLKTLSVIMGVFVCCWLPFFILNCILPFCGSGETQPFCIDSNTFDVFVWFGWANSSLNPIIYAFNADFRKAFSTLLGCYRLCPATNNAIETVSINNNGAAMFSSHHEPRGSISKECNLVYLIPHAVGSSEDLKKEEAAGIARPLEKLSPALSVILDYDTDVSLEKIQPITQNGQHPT
Assay: Binding affinity to human recombinant dopamine D1 receptor
Recorded Endpoint: IC50

Exam item: // query IC50 value for entry C[C@H]1Cc2c([nH]c3cc(Cl)c(F)cc23)[C@@]2(N1)C(=O)Nc1ccc(Cl)cc12
Marked response: > 10 µM

---

Biological target: Muscarinic acetylcholine receptor M1 (Homo sapiens)
Sequence (P11229 whole entry): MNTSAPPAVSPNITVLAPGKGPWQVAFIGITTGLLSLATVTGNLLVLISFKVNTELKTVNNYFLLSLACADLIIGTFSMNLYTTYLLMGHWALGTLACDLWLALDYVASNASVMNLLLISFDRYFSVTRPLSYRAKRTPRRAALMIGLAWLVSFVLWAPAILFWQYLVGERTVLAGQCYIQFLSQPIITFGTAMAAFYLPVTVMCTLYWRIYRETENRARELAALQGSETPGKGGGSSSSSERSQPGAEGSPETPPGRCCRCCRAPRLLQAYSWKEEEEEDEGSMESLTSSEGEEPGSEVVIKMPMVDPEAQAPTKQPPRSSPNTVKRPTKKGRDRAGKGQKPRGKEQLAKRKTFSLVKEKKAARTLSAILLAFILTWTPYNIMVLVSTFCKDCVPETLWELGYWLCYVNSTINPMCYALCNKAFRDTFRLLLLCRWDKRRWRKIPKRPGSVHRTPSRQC
Assay: Binding affinity to human recombinant muscarinic M1 receptor
pIC50: −log10 of the molar value.
Recorded Endpoint: pIC50

Exam item: // query pIC50 value for entry C[C@H]1Cc2c([nH]c3cc(Cl)c(F)cc23)[C@@]2(N1)C(=O)Nc1ccc(Cl)cc12
Marked response: < 5.00

---

Target: 3',5'-cyclic-AMP phosphodiesterase 4D (Homo sapiens)
Sequence (Q08499 whole entry): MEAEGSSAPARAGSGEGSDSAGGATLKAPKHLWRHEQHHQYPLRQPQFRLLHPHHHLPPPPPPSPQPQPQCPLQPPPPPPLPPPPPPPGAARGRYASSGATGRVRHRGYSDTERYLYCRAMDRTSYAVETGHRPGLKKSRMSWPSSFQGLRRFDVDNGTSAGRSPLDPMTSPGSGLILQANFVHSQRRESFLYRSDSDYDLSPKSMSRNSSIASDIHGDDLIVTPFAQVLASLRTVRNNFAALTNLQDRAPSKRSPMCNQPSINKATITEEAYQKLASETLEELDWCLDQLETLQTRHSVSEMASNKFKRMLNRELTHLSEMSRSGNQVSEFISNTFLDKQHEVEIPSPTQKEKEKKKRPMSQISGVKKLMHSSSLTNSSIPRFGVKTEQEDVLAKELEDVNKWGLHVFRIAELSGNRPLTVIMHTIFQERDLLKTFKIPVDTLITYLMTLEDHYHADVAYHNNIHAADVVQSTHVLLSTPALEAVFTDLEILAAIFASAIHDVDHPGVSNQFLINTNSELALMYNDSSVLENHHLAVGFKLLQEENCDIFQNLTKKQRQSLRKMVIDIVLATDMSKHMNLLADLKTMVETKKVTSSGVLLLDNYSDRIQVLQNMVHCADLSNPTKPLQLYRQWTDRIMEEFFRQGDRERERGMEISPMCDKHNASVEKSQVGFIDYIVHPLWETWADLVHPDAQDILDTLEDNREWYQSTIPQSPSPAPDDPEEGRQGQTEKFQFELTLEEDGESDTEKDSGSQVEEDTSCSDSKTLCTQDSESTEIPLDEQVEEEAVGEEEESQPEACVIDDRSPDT
Test: Binding affinity to human recombinant PDE4D
Recorded Endpoint: IC50

Exam item: What reported IC50 corresponds to C[C@H]1Cc2c([nH]c3cc(Cl)c(F)cc23)[C@@]2(N1)C(=O)Nc1ccc(Cl)cc12 [CIPARGAMIN] on 3',5'-cyclic-AMP phosphodiesterase 4D (Homo sapiens)?
Marked response: > 10 µM
